- Test system: SF-295 CNS
- PROTOCOL NOTES: NCI-60 one-dose screen, 48 h (100 = growth as untreated, 0 = no growth, -100 = all killed)
- EXPERIMENTAL CONTEXT: 10 µM unless noted
- Procedure: Cells are grown in 96 well plates and exposed to the test compound for 48 hours. Compounds are tested at a single concentration, which is 10^-5 M for most compounds. The reported endpoint is percent growth (GI% or GIPRCNT), where numbers from 0 - 100% represent growth inhibition, and numbers from -100% - 0 represent cell death. For example, a value of 40 represents 60% growth inhibition. A value of 0 means no net growth occurred over the course of the experiment. […]
The panel holds about 83,000 compounds, 20% with a hit somewhere; the sample as a whole holds those more often.
Decision: growth beneath 30% gives t; growth meeting or exceeding 30% gives f.

Would you kindly verify if growth of COC(=O)CNC(=O)C(=O)c1c(O)c(O)c(C(C)C)c2cc(C)c(-c3c(C)cc4c(C(C)C)c(O)c(O)c(C(=O)C(=O)NCC(=O)OC)c4c3O)c(O)c12 is strictly less than 30%?
t

Would you kindly verify if growth of CCCCCCCCN(CCCCCCCC)C(=N)c1ccnc2ccccc12 is strictly less than 30%?
t

Would you kindly verify if growth of CCOC(=O)N1CCc2c(sc3c2C(=O)N[C@H](c2ccc(OC)cc2)N3)C1 is strictly less than 30%?
f

Would you kindly verify if growth of CCCCCCNc1cc(C)nc2ccc(OC)cc12 is strictly less than 30%?
f

Would you kindly verify if growth of CCNCCNc1cc(C2CCCC2)c(C#N)c2nc3ccccc3n12 is strictly less than 30%?
t

More entries:
Would you kindly verify if growth of O=C(NCCOCCOCCOCCNC(=O)c1cc2c(o1)C(=O)c1ccccc1C2=O)NC12CC3CC(CC(C3)C1)C2 is strictly less than 30%?
t

====

- Test system: SNB-75 CNS
- PROTOCOL NOTES: NCI-60 one-dose screen, 48 h
- EXPERIMENTAL CONTEXT: 10 µM unless noted
The panel holds about 83,000 compounds, 20% with a hit somewhere; the sample as a whole holds those more often. Calls of active or inactive are those of the source. The calls were made as follows: active = growth percent below 10; inactive = the rest.
Output constraint: value belongs to active, inactive

Record excerpt, results attached:
Dear colleague, could you share the recorded outcome for COc1ccc(/C=C2\COc3ccc(O)cc3C2=O)c(OC)c1 when you have a moment?
inactive

Dear colleague, could you share the recorded outcome for C=CCOc1cccc(/C=C2\SC(=Nc3ccc(O)cc3)NC2=O)c1 when you have a moment?
active

Dear colleague, could you share the recorded outcome for C=C1c2c(C)nn(-c3ccc(S(N)(=O)=O)cc3)c2N(C)C23CC1C1(C)c4c(C)nn(-c5ccc(S(N)(=O)=O)cc5)c4N(C)C(C)(CC12)C3 (stereo not given) when you have a moment?
inactive

Dear colleague, could you share the recorded outcome for COc1cc2oc3cc(C)oc(=O)c3c2cc1OC when you have a moment?
inactive

Dear colleague, could you share the recorded outcome for CCN(CC)N=Nc1nn(C(=O)Nc2ccc(Cc3ccccc3)cc2)c2ccc(Cl)cc12 when you have a moment?
inactive

Dear colleague, could you share the recorded outcome for Fc1ccc(Nc2nc3nonc3nc2Nc2ccc(F)cc2)cc1 when you have a moment?
active

More entries:
Dear colleague, could you share the recorded outcome for CC(c1ccc(-n2cccn2)cc1)c1cnc(N2CCc3ccc(C(N)=O)cc3C2)s1 (stereo not given) when you have a moment?
inactive

Dear colleague, could you share the recorded outcome for C[C@H]1[C@H](C)CC[C@]2(C(=O)N3CCN(C)CC3)CC[C@]3(C)C(=CC[C@@H]4[C@@]5(C)C/C(=C/c6cccnc6)C(=O)C(C)(C)[C@@H]5CC[C@]43C)[C@H]12 when you have a moment?
active

Dear colleague, could you share the recorded outcome for CN(C)c1ccc(C#Cc2c(F)cccc2Cl)cc1 when you have a moment?
inactive

Dear colleague, could you share the recorded outcome for O=S(=O)(Cc1ccccc1)c1nc2ccccc2s1 when you have a moment?
inactive

Dear colleague, could you share the recorded outcome for COc1ccc(/C=C2\COc3ccc(O)cc3C2=O)cc1OC when you have a moment?
inactive

Dear colleague, could you share the recorded outcome for CCCCCCCC/C=C\CCCCCCCC(=O)Oc1cccc2cccnc12 when you have a moment?
inactive
